Listing of recorded Screen by entry.
# System: EPHB2 kinase domain
# protocolNotes: pTyr-Var library bacterial peptide display kinase screen (enrichment scores);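 further: log2 fold change in enrichment of variant over reference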
# Assay type: biochemical, human
# conditionsUsed: sheet EPHB2; effect of variant peptide relative to its reference peptide in the pTyr-Var library screen (enrichment scores)
// no unit, no text: just the number

residueSequence: QTPVLYAMLFH [MPZ_Y220_D224Y_YF]
Screen: -1.088
//
residueSequence: FGSIMYEFVGK [SLC18A1_Y251_V249I]
Screen: -1.759
//
residueSequence: GNLLIYTEFGN [HGD_Y166_K171N]
Screen: 0.7326
//
residueSequence: LPHVIYCRLWC [SMAD2_Y128_R133C]
Screen: 1.893

# input for lookup
Req: Assign Screen to the following record: LDAFIYNAAVL [GRIN2A_Y730_D731N]
Resp: -1.324

* * *

# Test system: Fer kinase domain
# protocolNotes: pTyr-Var library bacterial peptide display kinase screen (enrichment scores);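 further: log2 fold change in enrichment of variant over reference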
# Assay type: biochemical, mouse
# conditionsUsed: sheet "Fer"; value of the variant peptide against its reference peptide in the pTyr-Var library screen with Fer
// reported Screen for each item listed
# output: bare number, no unit

residueSequence: IMNLLYHVVGW [GBA_Y412_T408M]
Screen: -0.4668
--
residueSequence: TSSAVYMNLAS [GATAD2B_Y317_I316V]
Screen: -2.177
--
residueSequence: MARDIYQASFF [LTK_Y672_R673Q_YF]
Screen: 3.102
--
residueSequence: QTPVLYAMLFH [MPZ_Y220_D224Y_YF]
Screen: -0.58
--
residueSequence: LDAFIYNAAVL [GRIN2A_Y730_D731N]
Screen: -3.433
--
residueSequence: KAPPTYDNVLQ [CYP3A4_Y347_T349N]
Screen: -0.1979

Req: Specify reported Screen for the sequence shown: FAELVYTVFWH [ASS1_Y322_G324V]
Resp: -0.2764

Req: Let me know recorded Screen for SMEGLYSSAQD [CLIC5_Y111_T114A] , thanks.
Resp: 0.3754

Req: State, in one line, measured Screen of HKDNNYISMWF [PAPOLG_Y432_V433I]
Resp: -1.378

Req: For the sequence PSAELYSFALP [PDGFRB_Y716_N718Y_YF] , report Screen.
Resp: 1.182

Req: For the sequence LTERGYSFTTK [ACTG1_Y198_T203K] , report Screen.
Resp: 1.86

* * *

Listed sequences paired with reported Screen
# Test system: EPHB2 kinase domain
# protocolNotes: pTyr-Var library bacterial peptide display kinase screen (enrichment scores);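 further: log2 fold change in enrichment of variant over reference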
# Assay type: biochemical, human
# conditionsUsed: sheet EPHB2; effect of the variant relative to its reference peptide in the pTyr-Var library screen
// keep it numeric: no unit symbol after the value

Use the examples below as a reference point.
residueSequence: HAVFIYDICHV [TWNK_Y508_V507I_YF]
Screen: 1.461
//
residueSequence: PLFGEYFTLQI [TP53_Y327_D324Y_YF]
Screen: 0.9055
//
residueSequence: PLDGEYFILQI [TP53_Y327_T329I]
Screen: 0.5203
//
residueSequence: DLHGIYQKLVI [TTN_Y21998_R21995H]
Screen: 1.178
//
residueSequence: CEQELYSQLVF [WAS_Y102_W97C_YF]
Screen: -2.338

Req: Give me measured Screen, please, for this sequence: PLDGEYFTLPI [TP53_Y327_Q331P]
Resp: 3.847

src = paper PMC10065799
